Experiment: growth of efflux-deficient E. coli DRC39 – strain DRC39, OD650, 24 h, E. coli filamentation inducers, primary screen (AID 1178);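 note: growth measured as culture turbidity by optical density at 650 nm; test concentration not given here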
Details: E. coli DRC39 acrAB, higher = more signal, called active from +8 up or from −8 down
Decision: z-score compared against 0.5; not below it gives fulfilled, below it gives not fulfilled.

Assess whether reported z-score for [N-]=[N+]=NCc1ccccc1C[C@]1(C(N)=O)N=C(c2ccc(OCCCO)cc2)O[C@H]1c1ccccc1N=[N+]=[N-] sits at 0.5 or higher.
fulfilled

Assess whether reported z-score for Cc1ccc(S[C@]2(C(=O)NCCCN(C)C)CC(=O)N(Cc3ccccc3)[C@@H]2c2ccc(CO)cc2)cc1 sits at 0.5 or higher.
not fulfilled

---
Assess whether reported z-score for NC(=O)[C@@]1(CCS(=O)(=O)c2ccccc2)N=C(c2ccc(OCCCO)cc2)O[C@H]1c1ccccc1 sits at 0.5 or higher.
fulfilled

Assess whether reported z-score for C[n+]1ccc2ccc(O)cc2c1 sits at 0.5 or higher.
not fulfilled

Assess whether reported z-score for C=CCC(OC(C)=O)[C@@H]1[C@@H](N(Cc2cc3ccccc3o2)C(=O)c2cccc3ccccc23)c2cc(OCCCO)ccc2N1C(=O)Cc1ccc2ccccc2c1 (stereo partly drawn) sits at 0.5 or higher.
not fulfilled

Assess whether reported z-score for C=CCC(OC(C)=O)[C@@H]1[C@@H](N(Cc2ccc(-c3cccc(C(F)(F)F)c3)o2)C(=O)c2ccc(C)cc2)c2cc(OCCCO)ccc2N1C(=O)c1ccc2ccccc2n1 (stereo partly drawn) sits at 0.5 or higher.
not fulfilled

Assess whether reported z-score for [N-]=[N+]=NCc1ccccc1[C@@H]1OC(c2ccc(OCCCO)cc2)=N[C@]1(Cc1ccccc1N=[N+]=[N-])C(N)=O sits at 0.5 or higher.
not fulfilled

Assess whether reported z-score for O=C1OCC=C[C@H]2OC34C=CCN(c5ccc(Cl)cc5)C(=O)[C@H]3N(CCCO)C(=O)[C@@H]4[C@@H]12 (stereo partly drawn) sits at 0.5 or higher.
fulfilled

Assess whether reported z-score for COC(=O)c1c(CC[C@@H](CO)NC(=O)Nc2ncn[nH]2)oc(C(=O)Cc2ccccc2)c1C(=O)OC sits at 0.5 or higher.
fulfilled

Assess whether reported z-score for C=C(C(=O)CC[C@H](OC(=O)c1cccnc1)c1ccccc1OCCO)C(C)C sits at 0.5 or higher.
not fulfilled

Assess whether reported z-score for C#C[C@H]1Oc2ccccc2S(=O)(=O)N2CCC[C@@H]12 sits at 0.5 or higher.
not fulfilled

Assess whether reported z-score for O=C1O[C@@H](c2ccccc2)[C@@H](c2ccccc2)N2[C@@H](c3ccc(O)cc3)[C@]3(C(=O)Nc4ccccc43)[C@@H](C(=O)NC[C@H](O)c3ccccc3)[C@H]12 sits at 0.5 or higher.
not fulfilled

Assess whether reported z-score for COc1ccc([Si](C)(C)[C@H]2[C@H](CC(=O)N3CCC[C@H]3CO)O[C@@]3(C(=O)N(c4ccccc4)c4ccccc43)[C@@H]2C)cc1 sits at 0.5 or higher.
fulfilled

###

Assay: probe aEGFR binding to arrayed compounds – biochemical, biotinylated probe, 635/667 nm fluorescence, primary screen (AID 1097);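 note: probe is a biotinylated anti-EGFR antibody binding compounds printed on slides; score combines fluorescence near 667 nm and signal to noise of each spot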
Details: small-molecule microarray, higher = more signal
Metric: composite z-score
Number, no unit, nothing else.

Below are worked cases with known answers.
Return reported composite z-score; argument: C=CCOC(=O)[C@H]1[C@@H]2C(=O)O[C@@H](c3ccccc3)[C@@H](c3ccccc3)N2[C@@H](c2ccc(OCCOC(=O)[C@@H]3C[C@@H]4C(=O)NCC(=O)N4[C@@H]3c3ccc(O)cc3)cc2)[C@]12C(=O)Nc1ccc(I)cc12
-0.0788

Return reported composite z-score; argument: COCCOC(=O)N1C(=O)[C@@]2(c3cc(C#CC4=CCCCC4)ccc31)[C@H](c1ccc(OCCO)cc1)N1[C@H](c3ccccc3)[C@H](c3ccccc3)OC(=O)[C@H]1[C@@H]2C(=O)Nc1nc2ccccc2s1
-0.0164

Return reported composite z-score; argument: CC(=O)n1cc(C(O)C2C=CC3C(=O)N(c4ccccc4)C(=O)C3N2Nc2ccc(C#N)cc2)c2ccccc21 (centres undefined)
-0.0804

Now look at this entry.
Return reported composite z-score; argument: COc1ccc([Si](C)(C)[C@H]2[C@H](CCO)O[C@@]3(C(=O)N(Cc4ccccc4)c4ccc(N5C(=O)COc6ccccc65)cc43)[C@@H]2C)cc1
-0.126
